# Study target: recombinant human cathepsin E (Homo sapiens, UniProt P14091)
# Sequence (P14091 54-396): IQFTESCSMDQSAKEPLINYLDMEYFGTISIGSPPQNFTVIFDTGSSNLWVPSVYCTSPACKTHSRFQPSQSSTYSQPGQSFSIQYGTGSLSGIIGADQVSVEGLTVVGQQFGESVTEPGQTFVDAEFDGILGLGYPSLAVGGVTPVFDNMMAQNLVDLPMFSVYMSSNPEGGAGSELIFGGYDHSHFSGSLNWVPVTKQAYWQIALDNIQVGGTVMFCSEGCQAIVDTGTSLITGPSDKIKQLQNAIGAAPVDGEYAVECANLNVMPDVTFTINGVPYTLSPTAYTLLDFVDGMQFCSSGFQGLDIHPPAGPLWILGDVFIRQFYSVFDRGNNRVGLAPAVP
# Assay method text: Cathepsin E fluorescent substrate kinetic assay
# Experimental conditions: pH 4.5, substrate MR121-[…]
pIC50: −log10 of the molar value.
Readout label: pIC50

Molecule	pIC50
NC1=N[C@](CF)(c2cc(NC(=O)c3ccc(F)cn3)ccc2F)[C@H]2CC(F)(F)C[C@H]2O1	3.83
C[C@]1(c2cc(NC(=O)c3ccc(C#N)cn3)ccc2F)N=C(N)O[C@@H]2CC(F)(F)C[C@@H]21	4.00
C[C@]1(c2cc(NC(=O)c3ccc(Cl)cn3)ccc2F)N=C(N)O[C@@H]2CC(F)(F)C[C@@H]21	3.88

====

# Study target: BACE1 (Homo sapiens, UniProt P56817)
# Construct: Human HEK293 cells which are stably transfected with a vector expressing a cDNA of the human APP wt gene (APP695); endogenous in cells
# Sequence (P56817 46-501): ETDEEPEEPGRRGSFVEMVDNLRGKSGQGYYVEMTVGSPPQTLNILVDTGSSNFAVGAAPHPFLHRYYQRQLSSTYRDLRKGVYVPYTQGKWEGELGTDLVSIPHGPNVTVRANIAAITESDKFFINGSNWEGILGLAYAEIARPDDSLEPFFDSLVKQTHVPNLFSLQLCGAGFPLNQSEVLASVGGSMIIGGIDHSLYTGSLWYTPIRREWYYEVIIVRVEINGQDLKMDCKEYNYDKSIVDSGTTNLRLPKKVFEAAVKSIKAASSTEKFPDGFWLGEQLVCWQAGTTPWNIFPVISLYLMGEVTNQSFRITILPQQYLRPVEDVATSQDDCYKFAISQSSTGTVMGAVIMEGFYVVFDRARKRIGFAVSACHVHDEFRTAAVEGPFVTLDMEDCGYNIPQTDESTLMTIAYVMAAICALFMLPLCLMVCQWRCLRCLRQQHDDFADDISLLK
# Assay method text: Cellular Aβ-lowering assay (Aβ40 ELISA)
# Experimental conditions: HEK293 cells stably expressing human APP wt (APP695); Aβ40 in supernatant after 18-20 hrs; read-out: BACE1 cell act. Aβ40 IC50
# Procedure: Cellular Aβ-Lowering Assay: Human HEK293 cells which are stably transfected with a vector expressing a cDNA of the human APP wt gene (APP695) were used to assess the potency of the compounds in a cellular assay. […] After stopping the reaction with one volume 1 N H2SO4 the reaction was measured in an ELISA reader at 450 nm wavelength. The concentrations of Aβ in the culture supernatants were calculated from a standard curve obtained with known amounts of pure Aβ peptide.
Readout label: IC50 (nM)

Sample records with IC50:
Molecule	Units of measure	IC50
N#Cc1ccc(C(=O)Nc2ccc(F)c([C@@]3(C(F)F)N=C(N)O[C@@H]4CC(F)(F)C[C@@H]43)c2)nc1 [Example 36]	nM	14.5
NC1=N[C@@](c2cc(NC(=O)c3cnc(Cl)cn3)ccc2F)(C(F)F)[C@H]2CC(F)(F)C[C@H]2O1 [Example 39]	nM	1400

[A] COc1cnc(C(=O)Nc2ccc(F)c([C@@]3(CF)N=C(N)O[C@@H]4CC(F)(F)C[C@@H]43)c2)cn1 [Example 30]
[B] N#Cc1ccc(C(=O)Nc2ccc(F)c([C@@]3(CF)N=C(N)O[C@@H]4CC(F)(F)C[C@@H]43)c2)nc1 [Example 3]
## Task Which is greater in IC50, the first item A or the second item B ? // respond with label for picked entry
## Result A

====

# Study target: BACE1 (Homo sapiens, UniProt P56817)
# Construct: Human HEK293 cells which are stably transfected with a vector expressing a cDNA of the human APP wt gene (APP695); endogenous in cells
# Assay method text: Cellular Aβ-lowering assay (Aβ40 ELISA)
# Experimental conditions: HEK293 cells stably expressing human APP wt (APP695); Aβ40 in supernatant after 18-20 hrs; read-out: BACE1 cell act. Aβ40 IC50
Readout label: IC50 (nM)

Molecule	IC50 / nM
CC#CCOc1ccc(C(=O)Nc2ccc(F)c([C@@]3(CF)N=C(N)O[C@@H]4CC(F)(F)C[C@@H]43)c2)nc1 [Example 5]	0.8
NC1=N[C@](CF)(c2cc(NC(=O)c3ncc(C(F)(F)F)cc3Cl)ccc2F)[C@H]2CC(F)(F)C[C@H]2O1 [Example 16]	0.8
NC1=N[C@](CF)(c2cc(NC(=O)c3cnc(C(F)F)cn3)ccc2F)[C@H]2CC(F)(F)C[C@H]2O1 [Example 24]	7.9
NC1=N[C@](CF)(c2cc(NC(=O)c3cnc(OCC(F)(F)F)cn3)ccc2F)[C@H]2CC(F)(F)C[C@H]2O1 [Example 22]	2.5
NC1=N[C@](CF)(c2cc(NC(=O)c3ccc(OC(F)F)cn3)ccc2F)[C@H]2CC(F)(F)C[C@H]2O1 [Example 13]	3.5

[A] NC1=N[C@](CF)(c2cc(NC(=O)c3ccc(Cl)cn3)ccc2F)[C@H]2CC(F)(F)C[C@H]2O1 [Example 4]
[B] NC1=N[C@](CF)(c2cc(NC(=O)c3cnc(Cl)cn3)ccc2F)[C@H]2CC(F)(F)C[C@H]2O1 [Example 27]
## Task Would you mind telling me which has the lower recorded IC50 between A and B ? // respond with label for picked entry
## Result A

====

# Study target: BACE1 (Homo sapiens)
# Construct: Human HEK293 cells which are stably transfected with a vector expressing a cDNA of the human APP wt gene (APP695); endogenous in cells
# Assay method text: Cellular Aβ-lowering assay (Aβ40 ELISA)
# Experimental conditions: HEK293 cells stably expressing human APP wt (APP695); Aβ40 in supernatant after 18-20 hrs; read-out: BACE1 cell act. Aβ40 IC50
# Experimental: Cellular Aβ-Lowering Assay: Human HEK293 cells which are stably transfected with a vector expressing a cDNA of the human APP wt gene (APP695) were used to assess the potency of the compounds in a cellular assay. […] After stopping the reaction with one volume 1 N H2SO4 the reaction was measured in an ELISA reader at 450 nm wavelength. The concentrations of Aβ in the culture supernatants were calculated from a standard curve obtained with known amounts of pure Aβ peptide.
pIC50: −log10 of the molar value.
Readout label: pIC50

Sample records with pIC50:
Molecule	pIC50
NC1=N[C@](CF)(c2cc(NC(=O)c3ccc(OCC(F)(F)C(F)F)cn3)ccc2F)[C@H]2CC(F)(F)C[C@H]2O1 [Example 11]	7.85
NC1=N[C@@](c2cc(NC(=O)c3cnc(OC(F)F)cn3)ccc2F)(C(F)F)[C@H]2CC(F)(F)C[C@H]2O1 [Example 41]	8.15
NC1=N[C@](CF)(c2cc(NC(=O)c3ccc(F)cn3)ccc2F)[C@H]2CC(F)(F)C[C@H]2O1 [Example 7]	7.78
N#Cc1ccc(C(=O)Nc2ccc(F)c([C@@]3(CF)N=C(N)O[C@]4(CF)CC(F)(F)C[C@@H]43)c2)nc1 [Example 46]	7.57
COc1cnc(C(=O)Nc2ccc(F)c([C@@]3(C(F)F)N=C(N)O[C@@H]4CC(F)(F)C[C@@H]43)c2)cn1 [Example 42]	7.52

[P] N#Cc1cnc(C(=O)Nc2ccc(F)c([C@@]3(CF)N=C(N)O[C@@H]4CC(F)(F)C[C@@H]43)c2)c(Cl)c1 [Example 19]
[Q] NC1=N[C@](CF)(c2cc(NC(=O)c3ccc(OCC(F)(F)C(F)(F)F)cn3)ccc2F)[C@H]2CC(F)(F)C[C@H]2O1 [Example 10]
[R] NC1=N[C@](CF)(c2cc(NC(=O)c3ncc(Cl)cc3Cl)ccc2F)[C@H]2CC(F)(F)C[C@H]2O1 [Example 6]
[S] NC1=N[C@@](c2cc(NC(=O)c3cnc(OCF)cn3)ccc2F)(C(F)F)[C@H]2CC(F)(F)C[C@H]2O1 [Example 38]
## Task Form: Sort by [pIC50] Order [ ascending ] Response field: labels, in requested order.
## Result Q, S, P, R

====

Observed IC50 for CYP2C9 (Homo sapiens, UniProt P11712), reported per entry below.

Sample records with IC50:
Compound	IC50
C[C@]1(c2cc(NC(=O)c3ccc(C#N)cn3)ccc2F)N=C(N)O[C@@H]2CC(F)(F)C[C@@H]21 [Example 2]	> 10 µM
COc1cnc(C(=O)Nc2ccc(F)c([C@@]3(C(F)F)N=C(N)O[C@@H]4CC(F)(F)C[C@@H]43)c2)cn1 [Example 42]	> 10 µM

Alright, here's another compound for you.
## Task Write down measured IC50 (CYP2C9 (Homo sapiens, UniProt P11712)) for this compound. C[C@]1(c2cc(NC(=O)c3ccc(Cl)cn3)ccc2F)N=C(N)O[C@@H]2CC(F)(F)C[C@@H]21 [Example 1]
## Result > 10 µM

====

# Study target: cathepsin D (from human liver) (Homo sapiens)
# Sequence (P07339 65-162 limits assumed): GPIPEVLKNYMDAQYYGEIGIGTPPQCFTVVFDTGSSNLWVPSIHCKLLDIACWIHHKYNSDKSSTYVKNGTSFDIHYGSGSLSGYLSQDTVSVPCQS
# Sequence (P07339 169-412 limits assumed): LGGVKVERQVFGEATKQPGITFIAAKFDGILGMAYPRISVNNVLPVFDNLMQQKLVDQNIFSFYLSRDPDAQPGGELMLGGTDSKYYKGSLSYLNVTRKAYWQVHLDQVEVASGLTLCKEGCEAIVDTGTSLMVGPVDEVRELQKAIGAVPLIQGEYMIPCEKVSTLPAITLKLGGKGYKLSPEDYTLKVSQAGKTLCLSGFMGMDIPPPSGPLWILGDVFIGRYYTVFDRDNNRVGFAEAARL
Readout label: IC50

Compound	Study target	Value
NC1=N[C@](CF)(c2cc(NC(=O)c3cnc(C(F)F)cn3)ccc2F)[C@H]2CC(F)(F)C[C@H]2O1 [Example 24]	cathepsin D (from human liver) (Homo sapiens)	> 200 µM
NC1=N[C@](CF)(c2cc(NC(=O)c3ccc(F)cn3)ccc2F)[C@H]2CC(F)(F)C[C@H]2O1 [Example 7]	cathepsin D (from human liver) (Homo sapiens)	93 µM

## Task Write down measured IC50 (cathepsin D (from human liver) (Homo sapiens)) for this compound. COc1cnc(C(=O)Nc2ccc(F)c([C@@]3(C(F)F)N=C(N)O[C@@H]4CC(F)(F)C[C@@H]43)c2)cn1 [Example 42]
## Result > 150 µM
